molecular target: CaMK2d (Mus musculus); construct: […]; from tissue; host or cells: mouse brain; test: Kinobeads elution with test compound, mouse brain lysate, MS; type: binding; details: kinase released from kinobeads by specific elution
Sequence (Q6PHZ2 whole entry): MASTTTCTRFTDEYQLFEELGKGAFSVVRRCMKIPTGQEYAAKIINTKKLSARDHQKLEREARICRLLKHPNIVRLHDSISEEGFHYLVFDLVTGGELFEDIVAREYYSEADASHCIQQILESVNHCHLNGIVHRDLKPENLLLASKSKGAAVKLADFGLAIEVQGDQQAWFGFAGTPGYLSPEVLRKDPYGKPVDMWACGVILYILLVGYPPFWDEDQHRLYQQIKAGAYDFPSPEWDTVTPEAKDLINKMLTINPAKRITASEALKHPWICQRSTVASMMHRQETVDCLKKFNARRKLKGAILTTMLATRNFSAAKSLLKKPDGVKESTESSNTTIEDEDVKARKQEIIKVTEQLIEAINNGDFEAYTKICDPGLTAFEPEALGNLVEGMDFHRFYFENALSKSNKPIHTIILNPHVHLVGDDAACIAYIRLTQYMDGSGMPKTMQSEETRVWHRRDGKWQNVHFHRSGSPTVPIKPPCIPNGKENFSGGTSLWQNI
We begin with a simple list: items and their reported mass spectrometry score, CaMK2d.
recorded metric: mass spectrometry score, CaMK2d

1. CCCCCCCCCCCCOS(=O)(=O)[O-].[Na+] ... 434
2. CC(C)[C@H](CO)Nc1nc(Nc2ccc(C(=O)O)c(Cl)c2)c2ncn(C(C)C)c2n1 [Purvalanol B, reference compound] ... 473
3. NCc1ccc(Nc2ncc(F)c(Nc3ccccc3)n2)cc1 ... 444
4. NCCCn1cc(C2=C(c3c[nH]c4ccccc34)C(=O)NC2=O)c2ccccc21 [CZC1038, Bisindolylmaleimide III, reference compound] ... 702
5. Cn1c(=O)c(-c2c(Cl)cccc2Cl)cc2cnc(Nc3ccc(CN)cc3)cc21 ... 328
6. CNC1CC2OC(C)(C1OC)n1c3ccccc3c3c4c(c5c6ccccc6n2c5c31)C(=O)NC4 (stereo not drawn) ... 822
